Values compiled from patent US20250122183A1.

# target-entity: KAT6A Full length enzyme (Homo sapiens (Human), UniProt Q92794)
# Sequence (Q92794 other isoform, or with tags, fused parts or gaps): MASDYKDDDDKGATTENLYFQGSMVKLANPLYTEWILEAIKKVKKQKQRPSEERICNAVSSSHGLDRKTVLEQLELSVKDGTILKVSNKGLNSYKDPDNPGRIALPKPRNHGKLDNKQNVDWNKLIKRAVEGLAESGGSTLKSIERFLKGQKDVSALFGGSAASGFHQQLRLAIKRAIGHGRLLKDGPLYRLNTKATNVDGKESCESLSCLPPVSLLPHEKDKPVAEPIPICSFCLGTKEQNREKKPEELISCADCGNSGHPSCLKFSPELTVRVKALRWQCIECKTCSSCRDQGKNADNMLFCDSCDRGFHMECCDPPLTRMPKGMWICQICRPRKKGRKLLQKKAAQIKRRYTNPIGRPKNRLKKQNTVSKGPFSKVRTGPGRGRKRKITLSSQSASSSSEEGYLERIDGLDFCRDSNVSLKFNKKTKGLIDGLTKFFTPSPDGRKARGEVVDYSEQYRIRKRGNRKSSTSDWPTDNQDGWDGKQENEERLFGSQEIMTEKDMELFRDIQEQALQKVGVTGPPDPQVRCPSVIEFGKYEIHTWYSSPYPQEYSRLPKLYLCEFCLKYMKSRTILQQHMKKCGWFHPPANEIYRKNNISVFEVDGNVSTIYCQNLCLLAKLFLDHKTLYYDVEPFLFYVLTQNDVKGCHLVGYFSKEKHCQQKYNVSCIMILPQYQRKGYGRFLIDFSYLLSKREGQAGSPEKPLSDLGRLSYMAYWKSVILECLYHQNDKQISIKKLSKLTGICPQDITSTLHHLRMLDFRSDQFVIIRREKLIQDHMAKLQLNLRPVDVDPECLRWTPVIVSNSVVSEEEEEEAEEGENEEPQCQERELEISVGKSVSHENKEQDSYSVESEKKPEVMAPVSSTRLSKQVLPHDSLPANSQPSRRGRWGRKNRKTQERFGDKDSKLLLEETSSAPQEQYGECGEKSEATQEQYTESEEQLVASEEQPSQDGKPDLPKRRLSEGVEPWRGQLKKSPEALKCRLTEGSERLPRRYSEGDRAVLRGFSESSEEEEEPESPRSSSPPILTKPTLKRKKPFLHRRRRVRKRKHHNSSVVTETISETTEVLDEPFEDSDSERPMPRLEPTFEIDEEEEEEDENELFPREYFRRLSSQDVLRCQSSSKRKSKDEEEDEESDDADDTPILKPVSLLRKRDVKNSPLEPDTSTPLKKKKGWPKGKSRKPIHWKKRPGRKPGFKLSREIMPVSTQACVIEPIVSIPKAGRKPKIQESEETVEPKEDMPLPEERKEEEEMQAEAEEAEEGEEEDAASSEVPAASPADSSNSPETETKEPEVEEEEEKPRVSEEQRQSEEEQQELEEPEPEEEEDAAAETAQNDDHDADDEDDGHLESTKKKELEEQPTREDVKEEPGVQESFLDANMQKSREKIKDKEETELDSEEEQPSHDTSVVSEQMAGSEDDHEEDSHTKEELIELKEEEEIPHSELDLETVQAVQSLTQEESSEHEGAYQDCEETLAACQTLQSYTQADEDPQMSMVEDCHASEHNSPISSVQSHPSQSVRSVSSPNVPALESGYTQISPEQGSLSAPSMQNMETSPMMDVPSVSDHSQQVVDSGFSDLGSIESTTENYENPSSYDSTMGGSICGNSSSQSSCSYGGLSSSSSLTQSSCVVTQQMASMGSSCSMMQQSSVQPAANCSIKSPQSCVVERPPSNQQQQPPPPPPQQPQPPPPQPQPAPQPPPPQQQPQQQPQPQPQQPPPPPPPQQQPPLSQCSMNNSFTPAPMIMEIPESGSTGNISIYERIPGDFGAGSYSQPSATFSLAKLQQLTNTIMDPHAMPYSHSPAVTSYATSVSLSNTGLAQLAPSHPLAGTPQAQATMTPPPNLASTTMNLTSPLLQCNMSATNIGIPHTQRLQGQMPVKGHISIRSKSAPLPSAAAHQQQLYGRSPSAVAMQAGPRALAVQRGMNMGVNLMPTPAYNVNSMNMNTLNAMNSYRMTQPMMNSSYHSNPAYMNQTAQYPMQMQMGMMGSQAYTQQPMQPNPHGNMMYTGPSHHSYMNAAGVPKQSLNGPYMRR
# method-description: KAT6A assay (SAMDI-MS acetylation of H3 1-21 peptide)
# Format: biochemical
# run-parameters: Morrison equation fit; replicate number in parentheses; read-out: KAT6A Ki (nM) (replicate number)
test-readout: Ki (nM)

compound: COc1cc2c(NS(=O)(=O)c3c(OC)cc([C@H]4COCCO4)cc3OC)noc2cc1Nc1cc(C2CC2)[nH]n1
value-measured: 0.9

compound: COc1cc2c(NS(=O)(=O)c3c(OC)cc(C4CCN(C)C4)cc3OC)noc2cc1Nc1cc(C2CC2)n[nH]1 (single isomer, unassigned) [Example 148]
value-measured: 1.1

compound: CCOc1cc(C)c(F)cc1S(=O)(=O)Nc1noc2cc(Nc3n[nH]cc3F)c(OC)cc12
value-measured: 0.1

compound: COc1cc2c(NS(=O)(=O)c3c(OC)cc(-c4ccn(C)n4)cc3OC)noc2cc1Nc1cc(C2CC2C)n[nH]1 (single isomer, unassigned) [Example 241]
value-measured: 2.6
